study.system: CMV polymerase (Human cytomegalovirus, UniProt P08546)
Construct: made in house; host or cells: recombinant baculovirus-infected SF-9 cells
Sequence (P08546 whole entry): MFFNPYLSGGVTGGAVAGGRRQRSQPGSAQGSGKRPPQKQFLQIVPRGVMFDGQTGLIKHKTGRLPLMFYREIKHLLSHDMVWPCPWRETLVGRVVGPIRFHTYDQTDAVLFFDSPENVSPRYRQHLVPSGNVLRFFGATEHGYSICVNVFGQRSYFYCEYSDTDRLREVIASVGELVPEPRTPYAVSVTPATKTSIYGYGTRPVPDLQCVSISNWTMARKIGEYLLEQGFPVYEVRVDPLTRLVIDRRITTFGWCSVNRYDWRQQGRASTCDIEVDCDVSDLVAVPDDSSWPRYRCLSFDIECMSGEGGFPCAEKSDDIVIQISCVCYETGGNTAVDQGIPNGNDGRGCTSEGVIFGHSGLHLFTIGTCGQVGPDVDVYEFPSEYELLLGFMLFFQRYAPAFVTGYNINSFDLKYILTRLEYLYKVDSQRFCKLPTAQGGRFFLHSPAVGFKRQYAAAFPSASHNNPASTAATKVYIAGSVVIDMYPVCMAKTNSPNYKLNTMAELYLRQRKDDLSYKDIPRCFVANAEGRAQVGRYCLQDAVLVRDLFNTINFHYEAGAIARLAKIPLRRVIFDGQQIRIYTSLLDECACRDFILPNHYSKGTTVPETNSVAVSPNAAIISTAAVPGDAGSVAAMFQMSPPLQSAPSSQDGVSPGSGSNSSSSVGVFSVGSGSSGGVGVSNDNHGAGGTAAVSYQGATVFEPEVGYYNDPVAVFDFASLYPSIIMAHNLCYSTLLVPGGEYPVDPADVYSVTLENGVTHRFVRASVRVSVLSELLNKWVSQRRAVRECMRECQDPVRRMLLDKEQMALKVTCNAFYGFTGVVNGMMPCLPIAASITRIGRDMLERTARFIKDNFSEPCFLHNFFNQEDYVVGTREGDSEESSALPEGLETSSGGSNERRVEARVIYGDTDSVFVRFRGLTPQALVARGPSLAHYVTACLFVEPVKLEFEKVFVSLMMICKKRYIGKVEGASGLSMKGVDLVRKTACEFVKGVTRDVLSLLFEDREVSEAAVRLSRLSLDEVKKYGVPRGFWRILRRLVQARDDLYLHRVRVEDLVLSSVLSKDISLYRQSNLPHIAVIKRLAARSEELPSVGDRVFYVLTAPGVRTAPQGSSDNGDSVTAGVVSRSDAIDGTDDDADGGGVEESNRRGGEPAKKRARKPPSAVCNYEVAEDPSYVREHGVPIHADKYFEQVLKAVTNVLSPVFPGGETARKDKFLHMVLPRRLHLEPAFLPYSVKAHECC
assay.method.text: HCMV polymerase assay, scintillation proximity assay (SPA), modified version
Format: biochemical
assay.conditions: CMV polymerase IC50 (μM), modified HCMV polymerase SPA assay: compounds diluted in 100% DMSO, 4.5 mM DTT in polymerase buffer, different lot of CMV polymerase
Procedure: The HCMV polymerase assay is performed using a scintillation proximity assay (SPA) as described in several references, such as N. D. Cook, et al., Pharmaceutical Manufacturing International, pages 49-53 (1992); K. Takeuchi, Laboratory Practice, September issue (1992); U.S. Pat. No. 4,568,649 (1986); which are incorporated by reference herein. Reactions are performed in 96-well plates. […] Plates are incubated 10 min. at 37 C., then equilibrated to room temperature, and counted on a Packard Topcount. […]

>  <molecule>
COP(=O)(OC)OCC1Cn2cc(C(=O)NCc3ccc(Cl)cc3)c(=O)c3cc(CN4CCOCC4)cc(c32)O1 (stereo not shown) [Example 26]

>  <unit.info>
µM

>  <IC50>
0.53

$$$$

---

Let's look at some compounds and their measured melting point.

>  <compound>
O=C(NCc1ccc(Cl)cc1)c1cn2c3c(cc(CN4CCOCC4)cc3c1=O)OC1(CCOCC1)C2 [Example 46]

>  <melting point>
251 to 254 °C

$$$$
>  <compound>
CN1CCN(CC2Cn3cc(C(=O)NCc4ccc(Cl)cc4)c(=O)c4cc(CN5CCOCC5)cc(c43)O2)CC1 (stereo not shown) [Example 4]

>  <melting point>
201 to 208 °C (dec.)

$$$$
>  <compound>
Cn1ccnc1C1Cn2cc(C(=O)NCc3ccc(Cl)cc3)c(=O)c3cc(CN4CCOCC4)cc(c32)O1 (stereo not shown) [Example 59]

>  <melting point>
> 260 °C

$$$$
>  <compound>
O=C(NCc1ccc(Cl)cc1)c1cn2c3c(cc(CN4CCOCC4)cc3c1=O)OC(c1ccc3c(c1)OCO3)C2 (stereo not shown) [Example 40]

>  <melting point>
227 to 231 °C

$$$$
>  <compound>
O=C1CCC2(CC1)Cn1cc(C(=O)NCc3ccc(Cl)cc3)c(=O)c3cc(CN4CCOCC4)cc(c31)O2 [Example 54]

>  <melting point>
249.5 to 252 °C

$$$$
>  <compound>
O=C(NCc1ccc(Cl)cc1)c1cn2c3c(cc(CN4CCOCC4)cc3c1=O)OC(c1ccc(O)cc1)C2 (stereo not shown) [Example 65]

>  <melting point>
> 260 °C

$$$$
>  <compound>
O=C(NCc1ccc(Cl)cc1)c1cn2c3c(cc(CN4CCOCC4)cc3c1=O)OC(CN1CCOCC1)C2 (stereo not shown) [Example 2]

>  <melting point>
178 to 180 °C

$$$$

---

Let's look at some compounds and their measured melting point.
assay.readout: melting point

>  <compound>
CC(C)(C)OC(=O)N1CCC2(CC1)Cn1cc(C(=O)NCc3ccc(Cl)cc3)c(=O)c3cc(CN4CCOCC4)cc(c31)O2

>  <measurement>
213 °C (dec.)

$$$$
>  <compound>
O=C(NCc1ccc(Cl)cc1)c1cn2c3c(cc(CN4CCOCC4)cc3c1=O)OC(F)(F)C2

>  <measurement>
213.5 to 216.5 °C

$$$$
>  <compound>
O=C(NCc1ccc(Cl)cc1)c1cn2c3c(cc(CN4CCOCC4)cc3c1=O)OC1(CCC3(CC1)OCCO3)C2

>  <measurement>
> 260 °C

$$$$
>  <compound>
COCOCc1cccc(C2Cn3cc(C(=O)NCc4ccc(Cl)cc4)c(=O)c4cc(CN5CCOCC5)cc(c43)O2)c1 (stereo not shown)

>  <measurement>
186.5 to 189 °C

$$$$

---

study.system: CMV polymerase (Human cytomegalovirus, UniProt P08546)
Construct: made in house; host or cells: recombinant baculovirus-infected SF-9 cells
assay.method.text: HCMV polymerase assay, scintillation proximity assay (SPA), modified version
Format: biochemical
assay.conditions: modified HCMV polymerase SPA assay: compounds diluted in 100% DMSO, 4.5 mM DTT in polymerase buffer, different lot of CMV polymerase; read-out: CMV polymerase IC50
Protocol: The HCMV polymerase assay is performed using a scintillation proximity assay (SPA) as described in several references, such as N. D. Cook, et al., Pharmaceutical Manufacturing International, pages 49-53 (1992); K. Takeuchi, Laboratory Practice, September issue (1992); U.S. Pat. No. 4,568,649 (1986); which are incorporated by reference herein. Reactions are performed in 96-well plates. […] Plates are incubated 10 min. at 37 C., then equilibrated to room temperature, and counted on a Packard Topcount. […]

>  <molecule>
CN(C)CC1Cn2cc(C(=O)NCc3ccc(Cl)cc3)c(=O)c3cc(CN4CCOCC4)cc(c32)O1 (stereo not shown)

>  <study.system>
CMV polymerase (Human cytomegalovirus, UniProt P08546)

>  <IC50 (nM)>
760

$$$$
>  <molecule>
O=C(NCc1ccc(Cl)cc1)c1cn2c3c(cc(CN4CCOCC4)cc3c1=O)OC(c1cc(F)cc(F)c1)C2 (stereo not shown)

>  <study.system>
CMV polymerase (Human cytomegalovirus, UniProt P08546)

>  <IC50 (nM)>
330

$$$$
>  <molecule>
O=C(NCc1ccc(Cl)cc1)c1cn2c3c(cc(CN4CCOCC4)cc3c1=O)OC(CNCC(O)CO)C2 (stereo not shown)

>  <study.system>
CMV polymerase (Human cytomegalovirus, UniProt P08546)

>  <IC50 (nM)>
660

$$$$
>  <molecule>
COCOc1cc(OCOC)cc(C2Cn3cc(C(=O)NCc4ccc(Cl)cc4)c(=O)c4cc(CN5CCOCC5)cc(c43)O2)c1 (stereo not shown)

>  <study.system>
CMV polymerase (Human cytomegalovirus, UniProt P08546)

>  <IC50 (nM)>
400

$$$$
>  <molecule>
O=C(NCc1ccc(Cl)cc1)c1cn2c3c(cc(CN4CCOCC4)cc3c1=O)OC(c1ccco1)C2 (stereo not shown)

>  <study.system>
CMV polymerase (Human cytomegalovirus, UniProt P08546)

>  <IC50 (nM)>
460

$$$$
>  <molecule>
CC(C)(C)SCC1Cn2cc(C(=O)NCc3ccc(Cl)cc3)c(=O)c3cc(CN4CCOCC4)cc(c32)O1 (stereo not shown)

>  <study.system>
CMV polymerase (Human cytomegalovirus, UniProt P08546)

>  <IC50 (nM)>
420

$$$$
>  <molecule>
O=C(NCc1ccc(Cl)cc1)c1cn2c3c(cc(CN4CCOCC4)cc3c1=O)OC(CNCc1cccnc1)C2 (single isomer, unassigned) [Example 23]

>  <study.system>
CMV polymerase (Human cytomegalovirus, UniProt P08546)

>  <IC50 (nM)>
1100

$$$$

---

study.system: CMV polymerase (Human cytomegalovirus, UniProt P08546)
Construct: made in house; host or cells: recombinant baculovirus-infected SF-9 cells
assay.method.text: HCMV polymerase assay, scintillation proximity assay (SPA), modified version
Type: biochemical
assay.conditions: modified HCMV polymerase SPA assay: compounds diluted in 100% DMSO, 4.5 mM DTT in polymerase buffer, different lot of CMV polymerase; read-out: CMV polymerase IC50
Let's look at some compounds and their measured log10(IC50).
assay.readout: log10(IC50) (log10 of the value in µM)

>  <compound>
O=C1CCC2(CC1)Cn1cc(C(=O)NCc3ccc(Cl)cc3)c(=O)c3cc(CN4CCOCC4)cc(c31)O2

>  <assay.readout>
log10(IC50)

>  <measurement>
-0.22

$$$$
>  <compound>
O=C(NCc1ccc(Cl)cc1)c1cn2c3c(cc(CN4CCOCC4)cc3c1=O)OC(CN1CCOCC1)C2 (centres unmarked)

>  <assay.readout>
log10(IC50)

>  <measurement>
-0.12

$$$$
>  <compound>
Cn1ccnc1SCC1Cn2cc(C(=O)NCc3ccc(Cl)cc3)c(=O)c3cc(CN4CCOCC4)cc(c32)O1 (centres unmarked)

>  <assay.readout>
log10(IC50)

>  <measurement>
-0.57

$$$$
>  <compound>
O=C(NCc1ccc(Cl)cc1)c1cn2c3c(cc(CN4CCOCC4)cc3c1=O)OC(CO)C2 (single isomer, unassigned) [Example 20]

>  <assay.readout>
log10(IC50)

>  <measurement>
-0.46

$$$$
>  <compound>
COCOCc1ccc(C2Cn3cc(C(=O)NCc4ccc(Cl)cc4)c(=O)c4cc(CN5CCOCC5)cc(c43)O2)cc1 (centres unmarked)

>  <assay.readout>
log10(IC50)

>  <measurement>
0.23

$$$$
>  <compound>
O=C(NCc1ccc(Cl)cc1)c1cn2c3c(cc(CN4CCOCC4)cc3c1=O)OC(c1ccccc1)C2 (centres unmarked)

>  <assay.readout>
log10(IC50)

>  <measurement>
-0.04

$$$$
>  <compound>
O=C(NCc1ccc(Cl)cc1)c1cn2c3c(cc(CN4CCOCC4)cc3c1=O)OC(c1ccccn1)C2 (centres unmarked)

>  <assay.readout>
log10(IC50)

>  <measurement>
-0.28

$$$$
>  <compound>
O=C(NCc1ccc(Cl)cc1)c1cn2c3c(cc(CN4CCOCC4)cc3c1=O)OC(c1ccc(O)cc1)C2 (centres unmarked)

>  <assay.readout>
log10(IC50)

>  <measurement>
-0.35

$$$$
>  <compound>
O=C(NCc1ccc(Cl)cc1)c1cn2c3c(cc(CN4CCOCC4)cc3c1=O)OC(c1ccccc1CO)C2 (centres unmarked)

>  <assay.readout>
log10(IC50)

>  <measurement>
-0.48

$$$$
>  <compound>
CC(=O)OCC1Cn2cc(C(=O)NCc3ccc(Cl)cc3)c(=O)c3cc(CN4CCOCC4)cc(c32)O1 (centres unmarked)

>  <assay.readout>
log10(IC50)

>  <measurement>
-0.13

$$$$
>  <compound>
O=C(NCc1ccc(Cl)cc1)c1cn2c3c(cc(CN4CCOCC4)cc3c1=O)OC(CO)C2 (centres unmarked) [Example 1]

>  <assay.readout>
log10(IC50)

>  <measurement>
-0.21

$$$$
>  <compound>
O=C(NCc1ccc(Cl)cc1)c1cn2c3c(cc(C#CCO)cc3c1=O)OCC2(CO)CO

>  <assay.readout>
log10(IC50)

>  <measurement>
0.70

$$$$
>  <compound>
O=C(NCc1ccc(Cl)cc1)c1cn2c3c(cc(CN4CCOCC4)cc3c1=O)OC(c1ccsc1)C2 (centres unmarked)

>  <assay.readout>
log10(IC50)

>  <measurement>
-0.39

$$$$
>  <compound>
O=C(NCc1ccc(Cl)cc1)c1cn2c3c(cc(CN4CCOCC4)cc3c1=O)OC1(CCC(O)CC1)C2 (centres unmarked)

>  <assay.readout>
log10(IC50)

>  <measurement>
-0.39

$$$$
>  <compound>
O=C(NCc1ccc(Cl)cc1)c1cn2c3c(cc(CN4CCOCC4)cc3c1=O)OC(c1ccoc1)C2 (centres unmarked)

>  <assay.readout>
log10(IC50)

>  <measurement>
-0.42

$$$$
>  <compound>
O=C(NCc1ccc(Cl)cc1)c1cn2c3c(cc(CN4CCOCC4)cc3c1=O)OC(c1ccccc1O)C2 (centres unmarked)

>  <assay.readout>
log10(IC50)

>  <measurement>
-0.09

$$$$
>  <compound>
O=C(NCc1ccc(Cl)cc1)c1cn2c3c(cc(CN4CCOCC4)cc3c1=O)OC(CN(CCO)CCO)C2 (centres unmarked)

>  <assay.readout>
log10(IC50)

>  <measurement>
-0.23

$$$$
>  <compound>
COCOc1ccccc1C1Cn2cc(C(=O)NCc3ccc(Cl)cc3)c(=O)c3cc(CN4CCOCC4)cc(c32)O1 (centres unmarked)

>  <assay.readout>
log10(IC50)

>  <measurement>
0.02

$$$$
>  <compound>
O=C(NCc1ccc(Cl)cc1)c1cn2c3c(cc(CN4CCOCC4)cc3c1=O)OC1(CCSCC1)C2

>  <assay.readout>
log10(IC50)

>  <measurement>
-0.28

$$$$
>  <compound>
COCOCc1cccc(C2Cn3cc(C(=O)NCc4ccc(Cl)cc4)c(=O)c4cc(CN5CCOCC5)cc(c43)O2)c1 (centres unmarked)

>  <assay.readout>
log10(IC50)

>  <measurement>
-0.27

$$$$
>  <compound>
O=C(NCc1ccc(Cl)cc1)c1cn2c3c(cc(CN4CCOCC4)cc3c1=O)OC1(CCC3(CC1)OCCO3)C2

>  <assay.readout>
log10(IC50)

>  <measurement>
0.07

$$$$
>  <compound>
O=C(NCc1ccc(Cl)cc1)c1cn2c3c(cc(CN4CCOCC4)cc3c1=O)OC(c1ccc3c(c1)OCO3)C2 (centres unmarked)

>  <assay.readout>
log10(IC50)

>  <measurement>
-0.48

$$$$
>  <compound>
Cn1ccnc1C1Cn2cc(C(=O)NCc3ccc(Cl)cc3)c(=O)c3cc(CN4CCOCC4)cc(c32)O1 (centres unmarked)

>  <assay.readout>
log10(IC50)

>  <measurement>
-0.32

$$$$
>  <compound>
O=C(NCc1ccc(Cl)cc1)c1cn2c3c(cc(CCCO)cc3c1=O)OCC2(CO)CO

>  <assay.readout>
log10(IC50)

>  <measurement>
0.48

$$$$
>  <compound>
O=C(NCc1ccc(Cl)cc1)c1cn2c3c(cc(CN4CCOCC4)cc3c1=O)OC(CN1CCCC1)C2 (centres unmarked)

>  <assay.readout>
log10(IC50)

>  <measurement>
0.04

$$$$
>  <compound>
O=C(NCc1ccc(Cl)cc1)c1cn2c3c(cc(CN4CCOCC4)cc3c1=O)OCC2CN1CCOCC1 (centres unmarked)

>  <assay.readout>
log10(IC50)

>  <measurement>
-0.01

$$$$
